- TESTED SYSTEM: Protein smoothened (Homo sapiens, UniProt Q99835)
- Sequence (Q99835 whole entry): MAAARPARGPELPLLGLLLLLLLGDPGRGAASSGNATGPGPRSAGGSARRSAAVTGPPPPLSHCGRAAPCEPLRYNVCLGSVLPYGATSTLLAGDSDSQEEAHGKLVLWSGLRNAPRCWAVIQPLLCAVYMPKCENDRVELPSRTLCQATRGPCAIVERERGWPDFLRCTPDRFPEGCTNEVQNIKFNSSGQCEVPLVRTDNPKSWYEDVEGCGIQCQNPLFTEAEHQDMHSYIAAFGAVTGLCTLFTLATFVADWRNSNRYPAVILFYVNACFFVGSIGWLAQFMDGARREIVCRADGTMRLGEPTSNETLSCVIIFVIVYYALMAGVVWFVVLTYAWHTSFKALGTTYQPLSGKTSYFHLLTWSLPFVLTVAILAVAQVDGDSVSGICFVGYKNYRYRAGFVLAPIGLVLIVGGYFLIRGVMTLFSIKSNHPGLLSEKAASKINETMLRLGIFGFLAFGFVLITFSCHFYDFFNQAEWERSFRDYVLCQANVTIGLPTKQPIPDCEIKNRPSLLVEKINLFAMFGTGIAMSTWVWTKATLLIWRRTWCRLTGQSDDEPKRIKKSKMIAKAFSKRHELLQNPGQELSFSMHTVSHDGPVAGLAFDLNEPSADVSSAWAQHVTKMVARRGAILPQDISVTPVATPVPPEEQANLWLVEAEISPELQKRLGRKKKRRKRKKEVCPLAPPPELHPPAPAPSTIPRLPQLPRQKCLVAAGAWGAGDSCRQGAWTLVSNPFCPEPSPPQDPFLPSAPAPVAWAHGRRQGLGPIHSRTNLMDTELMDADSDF
- PROTOCOL TEXT: Displacement of BODIPY-cyclopamine from human Smo expressed in HEK293 cells in presence of 2% fetal calf serum
- Assay type: cell-based
IC50 vs 200 nM: less than gives met; not less than gives not met.

Identify whether the molecule CN(C)C(=O)c1cc(Cl)c(NC(=O)N2CCN3C(=O)N([C@H]4C[C@@H]4c4ccccc4)C(=O)[C@@H]3C2)c(Cl)c1 records IC50 below 200 nM.
met

Consider next the molecule O=C(Nc1cccnc1-c1ccccc1)N1CCN2C(=O)N([C@H]3C[C@@H]3c3ccccc3)C(=O)[C@@H]2C1 in the same way.
met

Same question for N#Cc1cc(Cl)c(NC(=O)N2CCN3C(=O)N([C@H]4C[C@@H]4c4ccccc4)C(=O)[C@@H]3C2)c(Cl)c1 please.
met

Queued: O=C(Nc1c(Cl)cc(F)cc1Cl)N1CCN2C(=O)N([C@H]3C[C@@H]3c3ccccc3)C(=O)[C@@H]2C1
met

Request: O=C(Nc1cccc(Cl)c1Cl)N1CCN2C(=O)N([C@@H]3C[C@H]3c3ccccc3)C(=O)[C@H]2C1
not met

Do the same for O=C(Nc1ccnn1-c1cccc(Cl)c1)N1CCN2C(=O)N([C@H]3C[C@@H]3c3ccccc3)C(=O)[C@@H]2C1 please
met

Another molecule: O=C(Nc1cccc(Cl)c1Cl)N1CCN2C(=O)N([C@H]3C[C@@H]3c3ccccc3)C(=O)[C@H]2C1
not met

Also need C[C@]12CN(C(=O)Nc3ccccc3-c3ccccc3)CCN1C(=O)N([C@H]1C[C@@H]1c1ccccc1)C2=O , thanks.
not met

----------
Consider the following compounds; for each one, report its Vd.
- PROTOCOL TEXT: Volume of distribution at steady state in rat
- Type: ADME, organism-based
- CONDITION PARAMETERS: in vivo, read-out: Vdss
I only need the number, in L/kg, no unit after it.

// returns reported Vd for input O=C(Nc1cccnc1-c1cccc(Cl)c1)N1CCN2C(=O)N([C@H]3C[C@@H]3c3ccccc3)C(=O)[C@@H]2C1
4.1

// same read-out, input: N#Cc1cc(Cl)c(NC(=O)N2CCN3C(=O)N([C@H]4C[C@@H]4c4ccccc4)C(=O)[C@@H]3C2)c(Cl)c1
0.5

// repeat for CS(=O)(=O)c1cc(Cl)c(NC(=O)N2CCN3C(=O)N([C@H]4C[C@@H]4c4ccccc4)C(=O)[C@@H]3C2)c(Cl)c1 and report
0.6

Another: O=C(Nc1ccccc1-c1ccccc1)N1CCN2C(=O)N([C@H]3C[C@@H]3c3ccccc3)C(=O)[C@@H]2C1
8

----------
- PROTOCOL TEXT: Oral bioavailability in dog
- Assay type: ADME, organism-based, Canis lupus familiaris
- CONDITION PARAMETERS: in vivo
MEASURED PROPERTY: bioavailability (%)
// note: answer is a bare numeric in %

# input compound: C[C@@]12CN(C(=O)Nc3ccnn3-c3ccccc3)CCN1C(=O)N([C@H]1C[C@@H]1c1ccccc1)C2=O ; wanted: its bioavailability
52

And for O=C(Nc1cccc(Cl)c1Cl)N1CCN2C(=O)N([C@H]3C[C@@H]3c3ccccc3)C(=O)[C@@H]2C1 ?
97

Do the same for O=C(Nc1ccnn1-c1ccccc1)N1CCN2C(=O)N([C@H]3C[C@@H]3c3ccccc3)C(=O)[C@@H]2C1 please
82
